The measurements presented in this section are drawn from ChEMBL document CHEMBL1125252.

- Tested on: Human immunodeficiency virus 1
- Experimental Details: Effective concentration required to achieve 50% protection of MT-4 cells against the cytopathic effect of HIV-1.
- Assay type: functional, organism-based
- Setup Conditions: Human immunodeficiency virus 1, MT4
Param label: returns class 1 when IC50 < 60 µM, returns class 0 otherwise, including exact equality.

-- ask Quick check: does C=C(C)CN1Cc2cccc3[nH]c(=O)n(c23)CC1C (configuration not stated) have IC50 under 60 µM?
-- reply class 1

-- ask Quick check: does C=C(C)CN1Cc2cccc3[nH]c(=O)n(c23)C[C@@H]1C have IC50 under 60 µM?
-- reply class 1

-- ask Quick check: does CC(C)=CCN1Cc2cccc3nc(O)n(c23)C[C@@H]1C have IC50 under 60 µM?
-- reply class 1

-- ask Quick check: does CCCN1Cc2cccc3[nH]c(=O)n(c23)CC1C (configuration not stated) have IC50 under 60 µM?
-- reply class 0

-- ask Quick check: does COC(=O)CN1Cc2cccc3nc(O)n(c23)CC1C (configuration not stated) have IC50 under 60 µM?
-- reply class 0

-- ask Quick check: does C=C(CC)CN1Cc2cccc3nc(O)n(c23)CC1C (configuration not stated) have IC50 under 60 µM?
-- reply class 1

-- ask Quick check: does CC1Cn2c(O)nc3cccc(c32)CN1CC1CC1 (configuration not stated) have IC50 under 60 µM?
-- reply class 1

-- ask Quick check: does CC(C)=CCN1Cc2cccc3nc(O)n(c23)C[C@H]1C have IC50 under 60 µM?
-- reply class 1

-- ask Quick check: does O=c1[nH]cnc2c1ncn2[C@H]1CC[C@@H](CO)O1 [DIDANOSINE] have IC50 under 60 µM?
-- reply class 1

-- ask Quick check: does C/C=C/CN1Cc2cccc3nc(O)n(c23)CC1C (configuration not stated) have IC50 under 60 µM?
-- reply class 1

-- ask Quick check: does C#CCN1Cc2cccc3nc(O)n(c23)CC1C (configuration not stated) have IC50 under 60 µM?
-- reply class 0

-- ask Quick check: does C=CC(=C)CN1Cc2cccc3nc(O)n(c23)CC1C (configuration not stated) have IC50 under 60 µM?
-- reply class 0
